// reported Kd for each item listed
molecular target: T1, human serum albumin (human, UniProt P02768 25-609); experiment: SPR, Fab captured; albumin taken as HSA;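 further: antibody held on a capture surface, albumin injected for 3 min association then dissociation followed, signals corrected using a blank reference flow cell and buffer-only injections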
T1 construct: mature; Bought purified serum albumin; also called HSA; Human albumin
Kindly provide the numeric value in nM only, without the unit symbol.

* CA645 gL12gH5 Fab (Fab, V domains shown, Fab: human gamma1 CH1, human kappa (Km3); Kabat numbering) VH: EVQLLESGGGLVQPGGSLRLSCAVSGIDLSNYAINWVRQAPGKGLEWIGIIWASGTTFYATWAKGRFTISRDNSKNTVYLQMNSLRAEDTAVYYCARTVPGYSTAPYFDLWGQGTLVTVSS VL: DIQMTQSPSSVSASVGDRVTITCQSSPDVWSNFLSWYQQKPGKAPKLLIYEASKLTSGVPSRFSGSGSGTDFTLTISSLQPEDFATYYCGGGYSSISDTTFGGGTKVEIK | 1.88
* CA645 gL4gH38 Fab (Fab, V domains shown, Fab: human gamma1 CH1, human kappa (Km3); Kabat numbering) VH: EVQLLESGGGLVQPGGSLRLSCAVSGIDLSNYAINWVRQAPGKGLEWIGIIWASGTTYYATWAKGRFTISRDNSKNTVYLQMNSLRAEDTAVYYCARTVPGYSTAPYFDLWGQGTLVTVSS VL: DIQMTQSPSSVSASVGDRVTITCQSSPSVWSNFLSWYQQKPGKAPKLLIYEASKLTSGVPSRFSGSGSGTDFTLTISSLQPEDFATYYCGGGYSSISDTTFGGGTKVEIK | 12.2

Note Kd for the binder shown: CA645 gL34gH5 Fab (Fab, V domains shown, Fab: human gamma1 CH1, human kappa (Km3); Kabat numbering) VH: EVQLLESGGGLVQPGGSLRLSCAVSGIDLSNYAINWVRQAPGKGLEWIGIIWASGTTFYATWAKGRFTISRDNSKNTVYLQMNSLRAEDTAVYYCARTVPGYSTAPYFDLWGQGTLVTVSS VL: DIQMTQSPSSVSASVGDRVTITCQSSPSVWSNFLSWYQQKPGKAPKLLIYEASKLTSGVPSRFSGSGSGTDFTLTISSLQPEDFATYYCGGGYTSISDTTFGGGTKVEIK 3.41
